EXPERIMENTAL_TARGET: CaM kinase I alpha (Zea mays, UniProt O04417)
Sequence (O04417 whole entry): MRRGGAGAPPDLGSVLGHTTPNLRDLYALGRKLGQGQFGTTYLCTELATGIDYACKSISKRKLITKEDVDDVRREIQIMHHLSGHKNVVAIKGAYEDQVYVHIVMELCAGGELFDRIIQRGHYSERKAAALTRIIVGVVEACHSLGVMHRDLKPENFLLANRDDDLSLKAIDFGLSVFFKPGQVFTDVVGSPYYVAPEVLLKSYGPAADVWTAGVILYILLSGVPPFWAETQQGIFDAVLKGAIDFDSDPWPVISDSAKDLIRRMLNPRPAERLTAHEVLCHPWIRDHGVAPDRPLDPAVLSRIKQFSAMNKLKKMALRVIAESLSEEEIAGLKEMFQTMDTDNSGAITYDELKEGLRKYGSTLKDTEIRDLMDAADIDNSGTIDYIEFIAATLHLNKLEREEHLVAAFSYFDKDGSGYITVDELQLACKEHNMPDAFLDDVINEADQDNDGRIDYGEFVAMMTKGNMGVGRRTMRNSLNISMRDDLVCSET
ASSAY_PROCEDURE: Inhibition of Calcium-dependent protein kinase 1 (CDPK-1) from maize seedlings
ENDPOINT_LABEL: IC50 (µM)
Form entry: value (µM) — number only.

Look up IC50 for this compound: C[C@H](NC(=O)CCNC(=O)CCNC(=O)[C@H]1OC(n2cnc3c(N)ncnc32)[C@H](O)[C@@H]1O)C(=O)N[C@@H](CCCNC(=N)N)C(=O)N[C@@H](CCCNC(=N)N)C(=O)N[C@@H](CCCNC(=N)N)C(=O)N[C@@H](CCCNC(=N)N)C(=O)N[C@@H](CCCNC(=N)N)C(=O)N[C@@H](CCCNC(=N)N)C(=O)O (some centres not stated)
16

---

Would you kindly list IC50 for each of these compounds?
ASSAY_PROCEDURE: Inhibition of Casein kinase 1 from rat liver

Look up IC50 for this compound: `Nc1ncnc2c1ncn2[C@@H]1O[C@H](CO)[C@@H](O)[C@H]1O`
126 µM

Look up IC50 for this compound: N=C(N)NCCC[C@H](NC(=O)[C@H](CCCNC(=N)N)NC(=O)[C@H](CCCNC(=N)N)NC(=O)[C@H](CCCNC(=N)N)NC(=O)[C@H](CCCNC(=N)N)NC(=O)[C@H](CCCNC(=N)N)NC(=O)CCNC(=O)[C@H]1OC(n2cnc3c(N)ncnc32)[C@H](O)[C@@H]1O)C(=O)O (stereo partly specified)
> 30 µM

Look up IC50 for this compound: N=C(N)NCCC[C@H](NC(=O)[C@H](CCCNC(=N)N)NC(=O)[C@H](CCCNC(=N)N)NC(=O)[C@H](CCCNC(=N)N)NC(=O)[C@H](CCCNC(=N)N)NC(=O)[C@H](CCCNC(=N)N)NC(=O)CCCCCCCNC(=O)[C@H]1OC(n2cnc3c(N)ncnc32)[C@H](O)[C@@H]1O)C(=O)O (stereo partly specified)
> 30 µM

Look up IC50 for this compound: N=C(N)NCCC[C@H](NC(=O)[C@H](CCCNC(=N)N)NC(=O)[C@H](CCCNC(=N)N)NC(=O)[C@H](CCCNC(=N)N)NC(=O)[C@H](CCCNC(=N)N)NC(=O)[C@H](CCCNC(=N)N)NC(=O)CCCNC(=O)[C@H]1OC(n2cnc3c(N)ncnc32)[C@H](O)[C@@H]1O)C(=O)O (stereo partly specified)
> 30 µM

Look up IC50 for this compound: `C[C@H](NC(=O)C[C@H](NC(=O)C[C@H](NC(=O)[C@H]1O[C@@H](n2cnc3c(N)ncnc32)[C@H](O)[C@@H]1O)C(=O)O)C(=O)O)C(=O)N[C@@H](CCCNC(=N)N)C(=O)N[C@@H](CCCNC(=N)N)C(=O)N[C@@H](CCCNC(=N)N)C(=O)N[C@@H](CCCNC(=N)N)C(=O)N[C@@H](CCCNC(=N)N)C(=O)N[C@@H](CCCNC(=N)N)C(=O)O`
> 30 µM

Look up IC50 for this compound: C[C@H](NC(=O)CCNC(=O)CCNC(=O)[C@H]1OC(n2cnc3c(N)ncnc32)[C@H](O)[C@@H]1O)C(=O)N[C@@H](CCCNC(=N)N)C(=O)N[C@@H](CCCNC(=N)N)C(=O)N[C@@H](CCCNC(=N)N)C(=O)N[C@@H](CCCNC(=N)N)C(=O)N[C@@H](CCCNC(=N)N)C(=O)N[C@@H](CCCNC(=N)N)C(=O)O (stereo partly specified)
> 100 µM

Look up IC50 for this compound: `NC(N)=NCCC[C@@H](N)C(=O)N[C@H](CCCN=C(N)N)C(=O)N[C@H](CCCN=C(N)N)C(=O)N[C@H](CCCN=C(N)N)C(=O)N[C@H](CCCN=C(N)N)C(=O)N[C@H](CCCN=C(N)N)C(=O)O`
> 100 µM

Look up IC50 for this compound: N=C(N)NCCC[C@H](NC(=O)[C@H](CCCNC(=N)N)NC(=O)[C@H](CCCNC(=N)N)NC(=O)[C@H](CCCNC(=N)N)NC(=O)[C@H](CCCNC(=N)N)NC(=O)[C@H](CCCNC(=N)N)NC(=O)CNC(=O)[C@H]1OC(n2cnc3c(N)ncnc32)[C@H](O)[C@@H]1O)C(=O)O (stereo partly specified)
> 30 µM

Look up IC50 for this compound: N=C(N)NCCC[C@H](NC(=O)[C@H](CCCNC(=N)N)NC(=O)[C@H](CCCNC(=N)N)NC(=O)[C@H](CCCNC(=N)N)NC(=O)[C@H](CCCNC(=N)N)NC(=O)[C@H](CCCNC(=N)N)NC(=O)CCCCCNC(=O)[C@H]1OC(n2cnc3c(N)ncnc32)[C@H](O)[C@@H]1O)C(=O)O (stereo partly specified)
> 30 µM

Look up IC50 for this compound: CC(=O)NCCCCCC(=O)N[C@@H](CCCN=C(N)N)C(=O)N[C@@H](CCCNC(=N)N)C(=O)N[C@@H](CCCNC(=N)N)C(=O)N[C@@H](CCCNC(=N)N)C(=O)N[C@@H](CCCNC(=N)N)C(=O)N[C@@H](CCCN=C(N)N)C(=O)O (stereo in doubt)
> 100 µM

Look up IC50 for this compound: N=C(N)NCCC[C@H](NC(=O)[C@H](CCCNC(=N)N)NC(=O)[C@H](CCCNC(=N)N)NC(=O)[C@H](CCCNC(=N)N)NC(=O)[C@H](CCCNC(=N)N)NC(=O)[C@H](CCCNC(=N)N)NC(=O)CCCCCCCCCCNC(=O)[C@H]1OC(n2cnc3c(N)ncnc32)[C@H](O)[C@@H]1O)C(=O)O (stereo partly specified)
> 30 µM

---

ASSAY_PROCEDURE: Inhibition of murine Protein kinase A
Parameters: species or system Mus musculus
Would you kindly list log10(IC50) for each of these compounds?
Heads up: the numbers are on a log10 scale; they represent IC50 in µM.

Look up log10(IC50) for this compound: N=C(N)NCCC[C@H](NC(=O)[C@H](CCCNC(=N)N)NC(=O)[C@H](CCCNC(=N)N)NC(=O)[C@H](CCCNC(=N)N)NC(=O)[C@H](CCCNC(=N)N)NC(=O)[C@H](CCCNC(=N)N)NC(=O)CCCCCCCNC(=O)[C@H]1OC(n2cnc3c(N)ncnc32)[C@H](O)[C@@H]1O)C(=O)O (some centres undefined)
-0.62

Look up log10(IC50) for this compound: N=C(N)NCCC[C@H](NC(=O)[C@H](CCCNC(=N)N)NC(=O)[C@H](CCCNC(=N)N)NC(=O)[C@H](CCCNC(=N)N)NC(=O)[C@H](CCCNC(=N)N)NC(=O)[C@H](CCCNC(=N)N)NC(=O)CCCCCCCCCCNC(=O)[C@H]1OC(n2cnc3c(N)ncnc32)[C@H](O)[C@@H]1O)C(=O)O (some centres undefined)
-0.48

Look up log10(IC50) for this compound: N=C(N)NCCC[C@H](NC(=O)[C@H](CCCNC(=N)N)NC(=O)[C@H](CCCNC(=N)N)NC(=O)[C@H](CCCNC(=N)N)NC(=O)[C@H](CCCNC(=N)N)NC(=O)[C@H](CCCNC(=N)N)NC(=O)CCNC(=O)[C@H]1OC(n2cnc3c(N)ncnc32)[C@H](O)[C@@H]1O)C(=O)O (some centres undefined)
0.26

Look up log10(IC50) for this compound: N=C(N)NCCC[C@H](NC(=O)[C@H](CCCNC(=N)N)NC(=O)[C@H](CCCNC(=N)N)NC(=O)[C@H](CCCNC(=N)N)NC(=O)[C@H](CCCNC(=N)N)NC(=O)[C@H](CCCNC(=N)N)NC(=O)CCCCCNC(=O)[C@H]1OC(n2cnc3c(N)ncnc32)[C@H](O)[C@@H]1O)C(=O)O (some centres undefined)
-0.92

Look up log10(IC50) for this compound: C[C@H](NC(=O)CCNC(=O)CCNC(=O)[C@H]1OC(n2cnc3c(N)ncnc32)[C@H](O)[C@@H]1O)C(=O)N[C@@H](CCCNC(=N)N)C(=O)N[C@@H](CCCNC(=N)N)C(=O)N[C@@H](CCCNC(=N)N)C(=O)N[C@@H](CCCNC(=N)N)C(=O)N[C@@H](CCCNC(=N)N)C(=O)N[C@@H](CCCNC(=N)N)C(=O)O (some centres undefined)
0.63

Look up log10(IC50) for this compound: `C[C@H](NC(=O)C[C@H](NC(=O)C[C@H](NC(=O)[C@H]1O[C@@H](n2cnc3c(N)ncnc32)[C@H](O)[C@@H]1O)C(=O)O)C(=O)O)C(=O)N[C@@H](CCCNC(=N)N)C(=O)N[C@@H](CCCNC(=N)N)C(=O)N[C@@H](CCCNC(=N)N)C(=O)N[C@@H](CCCNC(=N)N)C(=O)N[C@@H](CCCNC(=N)N)C(=O)N[C@@H](CCCNC(=N)N)C(=O)O`
1.05

Look up log10(IC50) for this compound: Nc1ncnc2c1ncn2[C@@H]1O[C@H](CO)[C@@H](O)[C@H]1O [ADENOSINE]
2.15

Look up log10(IC50) for this compound: N=C(N)NCCC[C@H](NC(=O)[C@H](CCCNC(=N)N)NC(=O)[C@H](CCCNC(=N)N)NC(=O)[C@H](CCCNC(=N)N)NC(=O)[C@H](CCCNC(=N)N)NC(=O)[C@H](CCCNC(=N)N)NC(=O)CNC(=O)[C@H]1OC(n2cnc3c(N)ncnc32)[C@H](O)[C@@H]1O)C(=O)O (some centres undefined)
0.60
